- testDescription: gradient 5% acetonitrile 3 min, to 50% in 2 min, to 85% in 15 min, held 3 min, 100 µL/min
- condition: column: Zorbax Extend-C18 2.1 x 50 mm; eluents: water / acetonitrile, 0.1% formic acid

cpdSmiles: CCCNC(=O)Cn1c(C)cc(=O)n2nc(-c3ccc(Cl)cc3)nc12
unitName: s
RP-LC retention time: 871
//
cpdSmiles: CN(C)CCn1c2c(c(SCC(=O)Nc3ccc(Cl)cc3)nc1=O)CCC2
unitName: s
RP-LC retention time: 656
//
cpdSmiles: Cn1c(=O)sc2cc(S(=O)(=O)N3CCC(C(=O)Nc4cccc(F)c4)CC3)ccc21
unitName: s
RP-LC retention time: 885
//
cpdSmiles: Cc1ccc(Cl)cc1NC(=O)Cn1nc2c3cc(Cl)ccc3ncn2c1=O
unitName: s
RP-LC retention time: 770
